Species: Rattus norvegicus
Experiment: DrugMatrix - Regimen: Daily Repeat
Format: toxicity, organism-based, Sprague-Dawley
Set-up: regimen Daily Repeat, gender Male, age 6-8 weeks
Conditions: in vivo, po, 0 mg/kg, 120 h, tissue Plasma, route oral GAVAGE, dose level Control, time 5 day, vehicle .5 % CMC
Record form. Attribute: CHOLESTEROL. Fill in for each entry.
Write down the numeric answer in mg/dL and omit the unit.

Consider the compound CC1CC(OC(=O)C(O)c2ccccc2)CC(C)(C)C1 (stereo not given) [CYCLANDELATE] and give its recorded CHOLESTEROL. 57.17

Consider the compound `ClC(Cl)Br` and give its recorded CHOLESTEROL. 71.83

Consider the compound `Nc1ccn([C@H]2CC[C@@H](CO)O2)c(=O)n1` and give its recorded CHOLESTEROL. 70.67

Consider the compound `Cc1nc2n(c(=O)c1CCN1CCC(c3noc4cc(F)ccc34)CC1)CCCC2` and give its recorded CHOLESTEROL. 65.17

Consider the compound `N=C(N)NCCN1CCCCCCC1` and give its recorded CHOLESTEROL. 57.17

Consider the compound C1CCC(C(CC2CCCCN2)C2CCCCC2)CC1 (stereo not given) and give its recorded CHOLESTEROL. 72.83

Consider the compound `CN1CCN(CCCN2c3ccccc3Sc3ccc(Cl)cc32)CC1` and give its recorded CHOLESTEROL. 57

Consider the compound CCCN1C[C@H](CSC)C[C@@H]2c3cccc4[nH]cc(c34)C[C@H]21 [PERGOLIDE] and give its recorded CHOLESTEROL. 71.5

Consider the compound `OCCN(CCO)c1nc(N2CCCCC2)c2nc(N(CCO)CCO)nc(N3CCCCC3)c2n1` and give its recorded CHOLESTEROL. 57.17

Consider the compound `CCn1cc(C(=O)O)c(=O)c2cc(F)c(N3CCNCC3)cc21` and give its recorded CHOLESTEROL. 71

* * *

Species: Rattus norvegicus
Assay: DrugMatrix - Regimen: Daily Repeat
Assay type: toxicity, organism-based, Sprague-Dawley
Parameters: regimen Daily Repeat, gender Male, age 6-8 weeks
Settings: in vivo, po, 0 mg/kg, 120 h, tissue Plasma, route oral GAVAGE, dose level Control, time 5 day, […]
measure: LACTATE DEHYDROGENASE (u/L)
Write down the numeric answer in u/L and omit the unit.

Consider the compound O=C(O)CCCc1ccc(N(CCCl)CCCl)cc1 [CHLORAMBUCIL] and give its recorded LACTATE DEHYDROGENASE. 290.67

Consider the compound CN(C)c1nc(N(C)C)nc(N(C)C)n1 [ALTRETAMINE] and give its recorded LACTATE DEHYDROGENASE. 1594

Consider the compound CCOC(=O)C1=C(COCCN)NC(C)=C(C(=O)OC)C1c1ccccc1Cl (stereo not given) [AMLODIPINE] and give its recorded LACTATE DEHYDROGENASE. 1594

Consider the compound Cc1noc(NS(=O)(=O)c2ccc(N)cc2)c1C [SULFISOXAZOLE] and give its recorded LACTATE DEHYDROGENASE. 229.17

Consider the compound Cc1ccc(-c2cc(C(F)(F)F)nn2-c2ccc(S(N)(=O)=O)cc2)cc1 [CELECOXIB] and give its recorded LACTATE DEHYDROGENASE. 290.67

* * *

Organism: Rattus norvegicus
Experiment: DrugMatrix - Regimen: Daily Repeat
Assay type: toxicity, organism-based, Sprague-Dawley
Design: regimen Daily Repeat, gender Male, age 6-8 weeks
Details: in vivo, po, 0 mg/kg, […], tissue Plasma, route oral GAVAGE, dose level Control, time 14 day, vehicle .5 % CMC
measure: CHLORIDE (MEQ/L)
Write down the numeric answer in MEQ/L and omit the unit.

Consider the molecule CCOP(=S)(OCC)Oc1nc(Cl)c(Cl)cc1Cl [CHLORPYRIFOS] and give its recorded CHLORIDE. 99.83

Consider the molecule ClC(Br)Br [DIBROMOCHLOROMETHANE] and give its recorded CHLORIDE. 100.17

Consider the molecule COc1ccc(C(=O)Nc2c(Cl)c[n+]([O-])cc2Cl)c2ccc(C(F)(F)F)nc12 [SCH-351591] and give its recorded CHLORIDE. 105.17

Consider the molecule ClC(Cl)Br [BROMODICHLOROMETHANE] and give its recorded CHLORIDE. 100.17

Values were extracted from ChEMBL document CHEMBL3885881.
